Data origin, for the record: patent US6559142B2

// endpoint pIC50 / system MMP-13CD (catalytic domain of collagenase 3) (Homo sapiens)
Value format note: pIC50 is -log10 of concentration (mol/L); just state the number.

A selection of reference data follows.
CC1(C)SCCN(S(=O)(=O)c2ccc3oc4ccccc4c3c2)[C@H]1C(=O)NO
8.52
CC1(C)SCCN(S(=O)(=O)c2ccc3c(c2)oc2ccccc23)[C@H]1C(=O)O
6.01
CC1(C)SCCN(S(=O)(=O)c2ccc3oc4cc([N+](=O)[O-])ccc4c3c2)[C@H]1C(=O)NO
8.70
CC1(C)SCCN(S(=O)(=O)c2ccc3c(c2)Cc2ccccc2-3)[C@H]1C(=O)O
5.29

Request: Form field: reported pIC50 of CC1(C)SCCN(S(=O)(=O)c2ccc3oc4cc(Br)ccc4c3c2)[C@H]1C(=O)O
Response: 6.04
